Data origin: patent US8530648B2

target: hOx2R (Homo sapiens (Human), UniProt O43614); assay: Radioligand binding assay, [3H]-SB649868, hOx2R; conditions: radioligand [3H]-SB649868, competition
Sequence (O43614 whole entry): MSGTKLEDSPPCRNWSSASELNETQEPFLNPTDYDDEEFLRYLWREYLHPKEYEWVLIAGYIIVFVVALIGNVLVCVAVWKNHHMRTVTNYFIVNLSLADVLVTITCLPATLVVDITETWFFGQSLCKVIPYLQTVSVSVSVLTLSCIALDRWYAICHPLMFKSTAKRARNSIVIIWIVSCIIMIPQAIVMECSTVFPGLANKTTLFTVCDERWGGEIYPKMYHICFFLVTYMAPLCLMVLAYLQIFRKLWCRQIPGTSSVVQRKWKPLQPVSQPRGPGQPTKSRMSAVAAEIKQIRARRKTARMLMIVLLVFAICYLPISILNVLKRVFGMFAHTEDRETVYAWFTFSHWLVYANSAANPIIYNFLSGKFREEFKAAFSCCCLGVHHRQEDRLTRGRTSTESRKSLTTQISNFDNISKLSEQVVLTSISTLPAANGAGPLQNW
// NB: equality with 200 nM counts as label 0; only Kd strictly below is label 1

1) O=C1N(Cc2cccc(-c3cnccn3)c2)CCCC12CCN(c1cnc3ccccc3n1)CC2 [Example 65]; label 0
2) Cc1nc(-c2cccc(CN3CCCC4(CCN(c5cnc6ccccc6n5)CC4)C3=O)c2)no1 [Example 98]; label 0
3) O=C1N(Cc2ccccc2-n2nccn2)CCCC12CCN(c1cnc3ccccc3n1)CC2 [Example 49]; label 1
4) O=C1N(Cc2cccc(-c3ncccn3)c2)CCCC12CCN(c1cnc3ccccc3n1)CC2 [Example 61]; label 0
5) Cc1ccc(-n2nccn2)cc1CN1CCCC2(CCN(c3cnc4ccccc4n3)CC2)C1=O [Example 128]; label 1
6) Cc1ccc(-n2nccn2)c(CN2CCCC3(CCN(c4cnc5ccccc5n4)CC3)C2=O)c1 [Example 125]; label 0
7) O=C1N(Cc2c[nH]c3ccccc23)CCCC12CCN(c1cc3nccnc3cn1)CC2 [Example 167]; label 1
8) O=C1N(Cc2c[nH]c3ccccc23)CCCC12CCN(c1nc3ccccc3[nH]1)CC2 [Example 152]; label 1
9) Cc1ccc2oc(N3CCC4(CCCC(=O)N4Cc4cccc5[nH]ccc45)CC3)nc2c1 [Example 140]; label 0
10) O=C1N(Cc2cccc3nonc23)CCCC12CCN(c1cnc3ccccc3n1)CC2 [Example 77]; label 0
11) O=C1N(Cc2c[nH]c3ccccc23)CCCC12CCN(c1cnc3ccccc3c1)CC2 [Example 48]; label 1
12) Cn1cc(CN2CCCC3(CCN(c4cnc5ccccc5n4)CC3)C2=O)c2ccccc21 [Example 130]; label 1
13) Cc1cc(N2CCC3(CCCN(Cc4c[nH]c5ccccc45)C3=O)CC2)nc2ccccc12 [Example 164]; label 1
14) O=C1N(Cc2cccc(-n3nccn3)c2)CCCC12CCN(c1cnc3ccccc3n1)CC2 [Example 47]; label 1
15) O=C1N(Cc2c[nH]c3ccccc23)CCCC12CCN(c1ncc3ccccc3n1)CC2 [Example 169]; label 1
16) O=C1N(Cc2cccc3c2OCCO3)CCCC12CCN(c1nccc3occc13)CC2 [Example 82]; label 0
